- MEASURED ON: ALK (G1202R) (Homo sapiens (Human), UniProt Q9UM73, G1202R)
- Sequence (Q9UM73 19-1620 G1202R): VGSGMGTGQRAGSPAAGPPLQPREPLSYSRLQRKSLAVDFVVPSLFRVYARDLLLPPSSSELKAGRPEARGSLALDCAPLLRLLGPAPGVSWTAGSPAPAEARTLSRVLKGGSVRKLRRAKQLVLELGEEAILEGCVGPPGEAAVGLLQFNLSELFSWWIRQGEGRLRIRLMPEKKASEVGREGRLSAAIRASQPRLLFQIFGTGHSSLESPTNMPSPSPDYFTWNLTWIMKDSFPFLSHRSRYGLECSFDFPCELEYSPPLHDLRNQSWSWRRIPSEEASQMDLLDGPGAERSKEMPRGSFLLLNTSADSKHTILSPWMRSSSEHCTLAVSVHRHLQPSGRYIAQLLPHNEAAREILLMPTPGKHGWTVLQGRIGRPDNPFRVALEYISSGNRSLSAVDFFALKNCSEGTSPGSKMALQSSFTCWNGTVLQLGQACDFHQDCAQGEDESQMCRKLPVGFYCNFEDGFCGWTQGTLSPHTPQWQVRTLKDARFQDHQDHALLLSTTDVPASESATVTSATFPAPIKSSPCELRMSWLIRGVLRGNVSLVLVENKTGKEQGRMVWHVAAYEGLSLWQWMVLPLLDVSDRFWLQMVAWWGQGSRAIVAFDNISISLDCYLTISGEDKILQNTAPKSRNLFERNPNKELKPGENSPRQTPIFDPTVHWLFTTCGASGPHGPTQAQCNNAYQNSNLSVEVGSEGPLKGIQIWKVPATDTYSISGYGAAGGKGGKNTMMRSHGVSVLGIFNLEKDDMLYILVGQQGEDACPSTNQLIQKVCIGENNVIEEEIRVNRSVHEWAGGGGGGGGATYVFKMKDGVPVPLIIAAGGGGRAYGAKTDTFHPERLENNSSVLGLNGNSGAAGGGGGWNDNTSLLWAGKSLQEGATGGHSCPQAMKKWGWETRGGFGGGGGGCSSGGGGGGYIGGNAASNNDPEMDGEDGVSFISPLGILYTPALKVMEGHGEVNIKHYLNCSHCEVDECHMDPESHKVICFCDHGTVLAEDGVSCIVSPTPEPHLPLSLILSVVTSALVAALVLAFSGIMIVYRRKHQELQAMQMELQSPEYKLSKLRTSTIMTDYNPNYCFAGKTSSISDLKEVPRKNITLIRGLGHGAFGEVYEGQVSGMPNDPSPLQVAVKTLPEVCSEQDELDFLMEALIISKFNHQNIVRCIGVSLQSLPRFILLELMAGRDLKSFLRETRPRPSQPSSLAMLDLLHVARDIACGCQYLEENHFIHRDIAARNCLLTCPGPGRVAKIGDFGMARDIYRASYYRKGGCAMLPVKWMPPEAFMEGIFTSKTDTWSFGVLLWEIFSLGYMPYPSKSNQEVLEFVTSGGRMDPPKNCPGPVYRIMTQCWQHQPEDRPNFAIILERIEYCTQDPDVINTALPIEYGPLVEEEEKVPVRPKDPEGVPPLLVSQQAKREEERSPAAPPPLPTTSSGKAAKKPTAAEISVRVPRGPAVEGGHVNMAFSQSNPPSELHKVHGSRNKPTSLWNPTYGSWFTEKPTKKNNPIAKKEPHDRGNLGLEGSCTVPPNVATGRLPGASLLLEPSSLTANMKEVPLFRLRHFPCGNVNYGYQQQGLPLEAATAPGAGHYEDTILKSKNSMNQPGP
- ASSAY PROTOCOL: Radio-tagged HotSpot kinase assay, ALK (G1202R)
- Format: biochemical
- EXPERIMENTAL SETUP: 33P-ATP, 120 min, room temperature
READOUT LABEL: IC50

Per the records, this compound ( CCc1ccc(F)cc1[C@@H](C)Nc1ccn2ncc(C3=NOC(C)(C)N3)c2n1 ) has IC50 equal to 5 to 50 nM

Per the records, this compound ( C[C@@H](Nc1ccn2ncc(C3=NOC(C)(C)N3)c2n1)c1c(Cl)ccc(F)c1Cl ) has IC50 equal to 5 to 50 nM

Per the records, this compound ( CCOc1ccc(F)cc1[C@@H](C)Nc1ccn2ncc(C3=NOC(C)(C)N3)c2n1 ) has IC50 equal to 0.5 to 5 nM

Per the records, this compound ( CC(C)Oc1ccc(F)cc1[C@@H](C)Nc1ccn2ncc(C3=NOC(C)(C)N3)c2n1 ) has IC50 equal to 0.5 to 5 nM

====

- MEASURED ON: TRKA (Homo sapiens (Human))
- Sequence (P04629 33-796): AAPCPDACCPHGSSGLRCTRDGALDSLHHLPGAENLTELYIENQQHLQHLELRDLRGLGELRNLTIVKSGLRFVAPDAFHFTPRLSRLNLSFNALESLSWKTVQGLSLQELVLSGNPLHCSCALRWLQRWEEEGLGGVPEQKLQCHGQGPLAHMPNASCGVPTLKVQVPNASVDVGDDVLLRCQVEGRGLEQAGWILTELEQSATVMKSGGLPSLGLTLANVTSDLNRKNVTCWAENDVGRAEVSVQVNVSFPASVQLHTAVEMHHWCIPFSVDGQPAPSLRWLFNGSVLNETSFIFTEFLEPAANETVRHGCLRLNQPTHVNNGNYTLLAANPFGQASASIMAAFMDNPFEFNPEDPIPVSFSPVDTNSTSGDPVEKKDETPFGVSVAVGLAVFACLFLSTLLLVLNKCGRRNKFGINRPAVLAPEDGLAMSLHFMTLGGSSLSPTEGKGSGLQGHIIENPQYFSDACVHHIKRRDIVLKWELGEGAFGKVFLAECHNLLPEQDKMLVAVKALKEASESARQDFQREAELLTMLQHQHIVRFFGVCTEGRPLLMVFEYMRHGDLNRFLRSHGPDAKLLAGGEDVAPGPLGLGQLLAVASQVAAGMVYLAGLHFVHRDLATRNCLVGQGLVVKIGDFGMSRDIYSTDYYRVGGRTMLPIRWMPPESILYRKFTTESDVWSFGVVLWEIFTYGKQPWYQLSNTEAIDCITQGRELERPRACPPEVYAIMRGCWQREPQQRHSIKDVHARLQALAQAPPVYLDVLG
- ASSAY PROTOCOL: Radio-tagged HotSpot kinase assay, TRKA;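 note: kinase activity measured through incorporation of 33P from labelled ATP into substrate, 120 min at room temperature, relative to a DMSO-only blank control, reported as inhibition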
READOUT LABEL: IC50

Measured IC50 (TRKA (Homo sapiens (Human))), entry COc1ccc(F)cc1[C@@H](C)Oc1ccn2ncc(C3=NOC(C)(C)N3)c2n1 : 0.5 to 5 nM

Measured IC50 (TRKA (Homo sapiens (Human))), entry COC(=O)N1CCC2(CC1)NC(c1cnn3ccc(N[C@H](C)c4cc(F)ccc4OC)nc13)=NO2 : 0.5 to 5 nM

Measured IC50 (TRKA (Homo sapiens (Human))), entry C[C@@H](Nc1ccn2ncc(C3=NOC(C)(C)N3)c2n1)c1c(Cl)ccc(F)c1Cl : 0.5 to 5 nM

Measured IC50 (TRKA (Homo sapiens (Human))), entry C[C@@H](Nc1ccn2ncc(C3=NOC(C)(C)N3)c2n1)c1cc(F)cc(F)c1 : 0.5 to 5 nM

Measured IC50 (TRKA (Homo sapiens (Human))), entry Cc1ccc(F)cc1[C@@H](C)Nc1ccn2ncc(C3=NOC(C)(C)N3)c2n1 : 0.5 to 5 nM

Measured IC50 (TRKA (Homo sapiens (Human))), entry COc1ccc(F)cc1[C@H](C)Nc1ccn2ncc(C3=NOC(C)(C)N3)c2n1 : 50 to 500 nM

Measured IC50 (TRKA (Homo sapiens (Human))), entry Cc1ccc(F)cc1[C@H](C)Nc1ccn2ncc(C3=NOC(C)(C)N3)c2n1 : 50 to 500 nM

Measured IC50 (TRKA (Homo sapiens (Human))), entry C[C@@H](Nc1ccn2ncc(C3=NOC(C)(C)N3)c2n1)c1ccccc1Cl : 0.5 to 5 nM

====

Answer each item with its documented IC50.
- MEASURED ON: ROS1 (G2032R) (Homo sapiens (Human), UniProt P08922, G2032R)
- Sequence (P08922 28-2347 G2032R): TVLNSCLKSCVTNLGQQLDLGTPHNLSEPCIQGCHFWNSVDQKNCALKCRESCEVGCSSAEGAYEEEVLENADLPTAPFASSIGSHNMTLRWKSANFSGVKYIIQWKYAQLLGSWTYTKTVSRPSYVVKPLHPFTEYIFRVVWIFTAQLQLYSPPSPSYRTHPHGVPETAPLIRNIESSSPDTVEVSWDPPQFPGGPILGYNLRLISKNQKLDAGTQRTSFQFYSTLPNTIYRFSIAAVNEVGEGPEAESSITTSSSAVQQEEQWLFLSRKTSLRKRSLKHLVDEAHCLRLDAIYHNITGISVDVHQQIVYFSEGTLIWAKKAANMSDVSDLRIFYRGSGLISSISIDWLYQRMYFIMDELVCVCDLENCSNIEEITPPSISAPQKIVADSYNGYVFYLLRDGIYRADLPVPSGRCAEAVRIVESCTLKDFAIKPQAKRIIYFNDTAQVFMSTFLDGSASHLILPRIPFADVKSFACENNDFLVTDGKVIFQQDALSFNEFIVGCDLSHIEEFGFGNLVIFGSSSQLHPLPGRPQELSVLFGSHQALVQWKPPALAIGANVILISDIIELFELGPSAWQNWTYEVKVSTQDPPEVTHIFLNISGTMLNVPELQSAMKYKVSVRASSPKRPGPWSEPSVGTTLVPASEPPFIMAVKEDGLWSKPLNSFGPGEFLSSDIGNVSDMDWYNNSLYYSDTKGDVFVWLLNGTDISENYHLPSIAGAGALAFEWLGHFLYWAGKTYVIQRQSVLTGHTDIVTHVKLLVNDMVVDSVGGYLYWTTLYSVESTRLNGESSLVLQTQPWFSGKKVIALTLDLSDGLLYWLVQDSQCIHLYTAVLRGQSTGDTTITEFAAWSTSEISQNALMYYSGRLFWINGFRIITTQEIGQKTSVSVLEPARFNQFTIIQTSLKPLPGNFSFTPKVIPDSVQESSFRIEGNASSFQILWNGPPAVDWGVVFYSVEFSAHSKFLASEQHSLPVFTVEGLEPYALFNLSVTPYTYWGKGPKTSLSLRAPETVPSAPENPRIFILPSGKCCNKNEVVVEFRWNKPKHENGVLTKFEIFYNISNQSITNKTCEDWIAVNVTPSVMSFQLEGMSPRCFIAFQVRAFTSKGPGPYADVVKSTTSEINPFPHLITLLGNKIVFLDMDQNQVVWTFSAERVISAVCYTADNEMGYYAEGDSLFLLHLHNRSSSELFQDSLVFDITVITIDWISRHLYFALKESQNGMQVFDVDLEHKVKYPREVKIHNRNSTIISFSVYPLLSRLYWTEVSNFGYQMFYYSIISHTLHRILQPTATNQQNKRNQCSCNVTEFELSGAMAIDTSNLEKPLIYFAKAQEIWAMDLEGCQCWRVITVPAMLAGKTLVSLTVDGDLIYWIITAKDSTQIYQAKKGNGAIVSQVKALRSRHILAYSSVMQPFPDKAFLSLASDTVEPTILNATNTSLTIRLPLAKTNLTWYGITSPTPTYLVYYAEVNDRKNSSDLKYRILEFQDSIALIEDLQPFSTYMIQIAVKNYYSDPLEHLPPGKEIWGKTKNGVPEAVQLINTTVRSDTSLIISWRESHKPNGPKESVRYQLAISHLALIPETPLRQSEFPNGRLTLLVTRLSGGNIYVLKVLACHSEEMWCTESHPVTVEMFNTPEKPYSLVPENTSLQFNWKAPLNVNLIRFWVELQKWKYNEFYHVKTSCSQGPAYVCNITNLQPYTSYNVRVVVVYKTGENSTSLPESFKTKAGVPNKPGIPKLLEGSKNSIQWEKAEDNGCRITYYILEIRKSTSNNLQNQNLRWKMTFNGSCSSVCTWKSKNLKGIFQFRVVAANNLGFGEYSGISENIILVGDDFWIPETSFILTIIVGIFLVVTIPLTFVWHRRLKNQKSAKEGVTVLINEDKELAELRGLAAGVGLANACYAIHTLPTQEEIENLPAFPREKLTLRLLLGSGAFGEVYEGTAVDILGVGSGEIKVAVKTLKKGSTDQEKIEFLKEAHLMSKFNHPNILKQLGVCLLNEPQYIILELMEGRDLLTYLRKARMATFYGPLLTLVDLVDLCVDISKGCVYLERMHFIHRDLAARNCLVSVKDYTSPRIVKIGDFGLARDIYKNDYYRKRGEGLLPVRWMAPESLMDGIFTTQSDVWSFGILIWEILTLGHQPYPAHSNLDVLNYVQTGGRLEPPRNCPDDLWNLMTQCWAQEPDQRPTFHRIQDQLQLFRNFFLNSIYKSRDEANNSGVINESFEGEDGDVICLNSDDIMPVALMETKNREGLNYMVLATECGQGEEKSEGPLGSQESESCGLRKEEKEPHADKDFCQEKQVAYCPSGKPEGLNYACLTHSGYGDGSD
- ASSAY PROTOCOL: Radio-tagged HotSpot kinase assay, ROS1 (G2032R)

Per the records, this compound ( C[C@@H](Nc1ccn2ncc(C3=NOC(C)(C)N3)c2n1)c1cc(F)ccc1Br ) has IC50 equal to 0.5 to 5 nM

Per the records, this compound ( C[C@@H](Nc1ccn2ncc(C3=NOC(C)(C)N3)c2n1)c1c(Cl)ccc(F)c1Cl ) has IC50 equal to 0.5 to 5 nM

Per the records, this compound ( Cc1nc(-c2cnn3ccc(N[C@H](C)c4cc(F)ccc4O)nc23)no1 ) has IC50 equal to 5 to 50 nM

Per the records, this compound ( CCc1ccc(F)cc1[C@@H](C)Nc1ccn2ncc(C3=NOC(C)(C)N3)c2n1 ) has IC50 equal to 0.5 to 5 nM

Per the records, this compound ( COc1ccc(F)cc1[C@@H](C)Oc1ccn2ncc(C3=NOC(C)(C)N3)c2n1 ) has IC50 equal to 0.5 to 5 nM

Hey, just so you know, these numbers are from patent US12435089B2.
